protocol-description: viability gain of MRP-1-high H69AR cells under doxorubicin, pilot screen, MRP-1 activator project, CellTiter-Glo, duplicate (AID 807);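 further: compound pretreatment 18-22 h then 72 h combined with doxorubicin; 0% = doxorubicin alone and 100% = vehicle without doxorubicin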
assay-conditions: H69AR viability with doxorubicin, CellTiter-Glo luminescence; at 10 µM; active compounds read high
Hi there, I'd appreciate the recorded viability increase for every entry that follows.
Numbers only, in %.

Completed entries (count: 6):
- compound: "Cc1c(C(=O)Nc2ccncc2)sc2nc(-c3ccc(F)cc3)cn12"
  metric: "viability increase"
  endpoint-result: -6.8
- compound: "CC1(C)CC(=O)C=C(NCCCNC2CCCCC2)C1"
  metric: "viability increase"
  endpoint-result: -2.17
- compound: "COc1ccccc1NC(=O)C1C2C=CC3(CN(Cc4cccnc4)C(=O)C13)O2 (stereo not drawn)"
  metric: "viability increase"
  endpoint-result: 0.16
- compound: "C=CCC1(O)C(=O)N2C(=C1C(=O)N1CCOCC1)c1ccccc1CC2(C)C (stereo not drawn)"
  metric: "viability increase"
  endpoint-result: -2.47
- compound: "COc1ccc(C2C(C(=O)N3CCN(c4ccccc4F)CC3)c3ccccc3C(=O)N2C)cc1 (stereo not drawn)"
  metric: "viability increase"
  endpoint-result: -5.64
- compound: "Cn1c(/C(C#N)=C2/CCCCCN2)nc2ccccc21"
  metric: "viability increase"
  endpoint-result: -2.4

Here are 6 compounds. What values of viability increase were reported for them?
1. COc1ccc(-c2noc(-c3cccc(OC)c3OC)n2)cc1OC
2. COC(=O)C1C(=O)C=C(N2CCOCC2)CC1(C)C (stereo not drawn)
3. CCCn1cc(S(=O)(=O)CC(=O)N2CCc3ccccc32)c2ccccc21
4. COc1ccc(S(=O)(=O)Cc2ccc(C(=O)N3CCCC3)o2)cc1
5. COc1ccc(S(=O)(=O)Cc2ccc(C(=O)N3CCc4ccccc4C3)o2)cc1
6. CCCC(C)NC(=O)c1ccc(F)cc1 (stereo not drawn)

1. -1.07
2. -0.72
3. -5.64
4. -1.61
5. -0.44
6. -1.81

# return viability increase for each item in the list
1. C=CCn1c(CCNC(=O)C(C)(C)C)nc2ccccc21
2. COc1ccc(N(CC(=O)Nc2ccc3c(c2)OCCO3)S(=O)(=O)c2c(C)nn(C)c2C)cc1

1. -1.82
2. -2.36

* * *

Consider the following compounds; for each one, report its viability.
protocol-description: growth suppression of PTEN-deleted HCT116, pilot screen, cell-based, HCT116 clonal line, CellTiter-Glo (AID 824);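 further: 0% = 20 µM Hyamine control and 100% = vehicle cell control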
assay-conditions: 60 h, at 10 µM, active compounds read low
Records with an inconclusive call do not appear.
Give bare numbers, in %.

Field: example entries. Status: answers known.
- compound: "COc1ccc(S(=O)(=O)Nc2ccc(S(=O)(=O)N3CCOCC3)cc2)cc1"
  viability / %: 101
- compound: "COc1cc(Cl)c(C)cc1NC(=O)CSc1nnc(-c2cccnc2)n1Cc1ccco1"
  viability / %: 79.8
- compound: "Cc1c(N=C2C(=O)Nc3ccccc32)c(=O)n(-c2ccccc2)n1C"
  viability / %: 90.3

I would be grateful if you could provide viability for each of the following entries.
1. CCSc1sccc1C1C(C#N)=C(N)N(c2cccnc2)C2=C1C(=O)CC(C)(C)C2 (stereo not drawn)
2. Cc1ccc(C(=O)NCCCn2ccnc2)o1
3. O=C(Cn1c(CN2CCCCC2)nc2ccccc2c1=O)NC1CCCCC1
4. Cc1ccc(S(=O)(=O)CC(C)N2CCOCC2)c(S(=O)(=O)CC(C)N2CCOCC2)c1 (stereo not drawn)

1: 93.2; 2: 97.8; 3: 88; 4: 94.4

For the 4 compounds below, give their viability values.
1. O=C(CN(C1CCCCC1)S(=O)(=O)c1ccccc1)N1CCCC1
2. CN(C)C(=O)c1nnc(Cc2ccc(Cl)cc2)o1
3. Cc1ccc(-c2nc(CS(=O)CC(=O)NCCC(C)C)c(C)o2)cc1 (stereo not drawn)
4. COc1ccccc1C(=O)Nc1ccc2c(c1)OCO2

100
108
95.8
89.2

Give measured viability for every item shown.
1. Cc1csc(SCC(=O)c2ccc(S(=O)(=O)N3CCOCC3)cc2)n1
2. Cc1cc(Cl)ccc1NC(=O)CSc1nnc(-c2ccncc2)n1Cc1ccco1
3. Fc1ccc(Nc2nc(N3CCOCC3)c3ccccc3n2)cc1
4. CCOc1cc(/C=N/O)cc(Br)c1OC
5. CCOC(=O)C(C)Sc1nc2c(c(=O)[nH]c(=O)n2C)n1Cc1ccc(Cl)cc1 (stereo not drawn)

98.2
93.9
93.4
97.1
91.6

Could you report viability for every entry in the following list?
1. CC1=CS/C(=C(/C#N)C(=O)N2CCOCC2)N1c1ccccc1
2. COc1ccc(C(=O)Nc2cc(=O)n(C)c(=O)n2C)cc1OC
3. COC(=O)C1C2C=CC3(CN(C(C)C)C(=O)C13)O2 (stereo not drawn)
4. CN1CCCN(Cc2ccccc2C(F)(F)F)CC1
5. C=C(C)Cn1c(CNC(C)=O)nc2ccccc21
6. COc1cccc2c(=O)c(C/C=C(/C)Cl)c(C)[nH]c12
7. CCN(CC)S(=O)(=O)c1ccc2oc(C(=O)NCC3COc4ccccc4O3)c(C)c2c1 (stereo not drawn)

94.7
94.2
102
98.1
94.3
91.6
56.5

* * *

Field: viability. Provide a value for each of the compounds that follow.
protocol-description: growth suppression of PTEN-deleted HCT116, pilot screen, cell-based, HCT116 clonal line, CellTiter-Glo (AID 824);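 further: 0% = 20 µM Hyamine control and 100% = vehicle cell control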
assay-conditions: 60 h, at 10 µM, active compounds read low
Results filed as inconclusive are left out.
Answers are plain numbers, in %.

Use the examples below as a reference point.
- compound: "COCCOC(=O)C1=C(C)NC2=C(C(=O)CCC2)C1c1ccc2c(c1)OCO2 (stereo unspecified)"
  metric: "viability"
  endpoint-result: 93
- compound: "O=C1CCCN1CC(CN1CCOCC1)Sc1nc2ccccc2c(=O)n1-c1ccccc1 (stereo unspecified)"
  metric: "viability"
  endpoint-result: 97.3
- compound: "Cc1nnc(SCc2ccc(Cl)cc2Cl)[nH]c1=O"
  metric: "viability"
  endpoint-result: 99.1
- compound: "CC1(C)SCC2C(=O)N3C(CSC3(C)C)C(=O)N21 (stereo unspecified)"
  metric: "viability"
  endpoint-result: 96.2
- compound: "O=C(c1cnc2n(c1=O)CCS2)N1CCN(C(c2ccccc2)c2ccc(Cl)cc2)CC1 (stereo unspecified)"
  metric: "viability"
  endpoint-result: 63.7
- compound: "O=C1CCCCCN1CP(=O)(O)CCc1ccccc1"
  metric: "viability"
  endpoint-result: 104
- compound: "CCN1CCN(C(=O)c2cc3c(=O)oc4ccc(C)cc4c3s2)CC1"
  metric: "viability"
  endpoint-result: 93.7
- compound: "COc1ccccc1Nc1nc2ccccc2n1C"
  metric: "viability"
  endpoint-result: 94.6
- compound: "O=C(CSc1nnc(Cc2cc(=O)[nH]c(=O)[nH]2)n1-c1ccc(Cl)cc1)NC1CCCC1"
  metric: "viability"
  endpoint-result: 104
- compound: "CCOC(=O)c1c(C)n(C)c2cc(Br)c(C(=O)OC)cc12"
  metric: "viability"
  endpoint-result: 96.3

Give me viability for each of these compounds, listed below.
1. Cc1nc(N2CCCCC2)c2sc(=S)n(C)c2n1
2. Cn1ccnc1SCC(=O)Nc1cccc(C(F)(F)F)c1
3. O=C(c1ccc(Br)o1)N1CCN=C1SCc1cccnc1
4. COc1ccc(NC(=O)C2CCN(S(=O)(=O)c3cccnc3)CC2)cc1Cl

[81.9, 96.8, 87.6, 100]

# batch size: 4; output viability per entry
1. CCSc1nnc(NC(=O)CSc2nc3c(c(=O)n2CCOC)SC(C)C3)s1 (stereo unspecified)
2. CCNc1nc(-c2ccc(Cl)cc2)cs1
3. O=C(O)c1ccc(N2C(=O)CC(Cc3ccccc3)C2=O)cc1 (stereo unspecified)
4. O=S(=O)(NC1CCCCC1)c1cccc(-c2nnc(-c3ccccc3)o2)c1

[94.4, 84.4, 100, 81.2]

Your task in this section: give viability for each listed record.
1. CCOc1ccccc1NC(=O)N1CCCC1C(=O)Nc1ccc(-n2cnnn2)c(C)c1 (stereo unspecified)
2. Cc1ccc(N2Cc3ccccc3OC(C)C2=O)cc1 (stereo unspecified)

1: 97.9; 2: 91.3

// each compound listed below needs its viability
1. CC1(C)CCCC2=C1CC1C(=O)N(Cc3cccnc3)C(=O)C1C2 (stereo unspecified)
2. NS(=O)(=O)c1ccc(NC(=O)COC(=O)CCNC(=O)NC23CC4CC(CC(C4)C2)C3)cc1
3. CCCC(NS(=O)(=O)c1ccc(OC)cc1)C(=O)O (stereo unspecified)

1: 86.7; 2: 98.6; 3: 95.4

* * *

protocol-description: 384-well plate pilot, post-Golgi transport modulator project, inhibition of yeast transport mutant growth (AID 636)
assay-conditions: absorbance 615 nm, about 18 h, active compounds read high
For each of the compounds below, state its inhibition.
Numbers only, in %.

Here's what some known entries look like.
- compound: "O=C(Nc1ccc2c(c1)OCO2)C(c1ccc(Cl)cc1)N1CCN(C(=O)c2ccco2)CC1 (stereo unspecified)"
  unit-abbreviation: "%"
  inhibition: -5.27
- compound: "Cc1n[nH]c(C)c1S(=O)(=O)N1CCCCCC1"
  unit-abbreviation: "%"
  inhibition: -1.58
- compound: "CCOc1ccccc1NC(=O)NC1CCN(CC(=O)Nc2ccc3c(c2)OCCO3)CC1"
  unit-abbreviation: "%"
  inhibition: -0.39
- compound: "CCOC(=O)N1CCN(c2c(N3CCN(c4ccccc4OC)CC3)c(=O)c2=O)CC1"
  unit-abbreviation: "%"
  inhibition: -4
- compound: "CCC1(NC(C)=O)CC2CC1CC2NC(C)=O (stereo unspecified)"
  unit-abbreviation: "%"
  inhibition: -3.2

Next item in the queue.
Recorded inhibition for `CCOC(=O)c1oc2cccc(OC(C)=O)c2c1C` , please?
-5.6
